// provenance: patent US20240122180A1

# maps each entry to its Test A disease control rating
# Test system: Phakopsora pachyrhizi (the causal agent of Asian soybean rust)
# assay: Test A: preventive spray on soybean seedlings, visual disease rating (100 = 100% control; * 50 ppm, ** 10 ppm, *** 250 ppm)
# Format: in vivo
# reported conditions: 50 ppm test suspension; 100 = 100% disease control, 0 = no control

structure | Test A disease control rating
CCOC(=O)c1cnn(Cc2ccc(O/C=C(\OCC#N)C(F)(F)F)cc2)c1 | 100%
CCOC(=O)c1cnn(Cc2cccc(O/C=C(\OCC)C(F)(F)F)c2C)c1 | 0%
CCOC(=COc1ccc([N+](=O)[O-])cc1)C(F)(F)F | 0%
CCOC(=O)c1ccn(Cc2cc(C)cc(O/C=C(\OCC)C(F)(F)F)c2)n1 | 0%
CC(=O)N1CC(c2ccc(OCC3(C(F)(F)F)OCCO3)cc2)C1 | 97%
CCO/C(=C\Oc1ccc(Cn2cc(C(=O)NCc3ncccn3)cn2)cc1)C(F)(F)F | 96%
CCO/C(=C\Oc1cccc(Cn2cc(C(=O)OCC(F)F)cn2)c1)C(F)(F)F | 100%
CCOC(=COc1ccc(CCl)cc1)C(F)(F)F | 0%
CCOC(=O)c1cnn(Cc2ccc(NCC3(C(F)(F)F)OCCO3)cc2)c1 | 48%

###

# maps each entry to its Test A disease control rating
# System: Phakopsora pachyrhizi (the causal agent of Asian soybean rust)
# assay: Test A: preventive spray on soybean seedlings, visual disease rating (100 = 100% control; * 50 ppm, ** 10 ppm, *** 250 ppm)
# Type: in vivo
# reported conditions: 250 ppm test suspension; soybean seedlings; 100 = 100% disease control
measured endpoint: Test A disease control rating (%)

compound | measured endpoint | assay value
CCOC(=O)c1cnn(Cc2ccc(SCC3(C(F)(F)F)OCCO3)cc2)c1 [compound 115] | Test A disease control rating | 0
N#Cc1ccc(OCC2(C(F)(F)F)OCCO2)cc1 [compound 98] | Test A disease control rating | 100
O=C(NCC(F)(F)F)c1csc(Cc2ccc(OCC3(C(F)(F)F)OCCO3)cc2)n1 [compound 70] | Test A disease control rating | 100
CCOC(=O)c1cnn(Cc2ccc(O/C=C(\OC(C)C)C(F)(F)F)cc2)c1 [compound 57] | Test A disease control rating | 100

###

# System: Uncinula necator (the causal agent of grape powdery mildew)
# assay: Test C: preventive spray on grape seedlings, disease rating (100 = 100% control; * 50 ppm, ** 10 ppm, *** 250 ppm)
# Type: in vivo
# reported conditions: Erysiphe necator; 50 ppm test suspension; 100 = 100% disease control, 0 = no control
# maps each entry to its pest or weed control at 50 ppm

compound | pest or weed control at 50 ppm (%)
CCOC(=O)c1cnn(Cc2ccc(OCC3(C(F)(F)F)OCCO3)c(F)c2)c1 | 100
CCOC(=O)c1cnn(COc2ccc(O/C=C(\OCC)C(F)(F)F)cc2)c1 | 100
COC(COc1ccc(Cn2cc(Br)cn2)cc1)(O[Si](C)(C)C)C(F)(F)F (stereo not shown) | 100
CCOC(=O)c1cnn(Cc2cccc(O/C=C(\OCC)C(F)(F)F)c2)c1 | 98

###

# maps each entry to its Test A disease control rating
# Tested on: Phakopsora pachyrhizi (the causal agent of Asian soybean rust)
# assay: Test A: preventive spray on soybean seedlings, visual disease rating (100 = 100% control; * 50 ppm, ** 10 ppm, *** 250 ppm)
# Type: in vivo
# reported conditions: 50 ppm test suspension; 100 = 100% disease control, 0 = no control

compound | Test A disease control rating, %
CCOC(=O)c1ccn(Cc2ccc(OC)c(O/C=C(\OCC)C(F)(F)F)c2)n1 [compound 407] | 0
CCO/C(=C\Oc1cccc(Cn2cc(C(=O)NCC(F)F)cn2)c1)C(F)(F)F [compound 394] | 0
CCO/C(=C\Oc1cccc(Cn2cc(C(=O)NCc3ncccn3)cn2)c1)C(F)(F)F [compound 402] | 97
CS(=O)(=O)c1nccc(Cc2ccc(OCC3(C(F)(F)F)OCCO3)cc2)n1 [compound 282] | 0
CCOC(=O)C1=NOC(Cc2ccc(OC=C(OCC)C(F)(F)F)cc2)C1 (stereo not drawn) [compound 287] | 77
CCO/C(=C\Oc1ccc(Cn2cc(C(=O)N(CC)CC)cn2)cc1)C(F)(F)F [compound 438] | 73
CCO/C(=C\Oc1ccc(Cc2ccnc(OCC(F)F)n2)cc1)C(F)(F)F [compound 306] | 96
CCOC(=O)c1cnn(Cc2cc(C)cc(O/C=C(\OCC)C(F)(F)F)c2)c1 [compound 406] | 0
CCS(=O)(=O)N1CC(c2ccc(OCC3(C(F)(F)F)OCCO3)cc2)C1 [compound 382] | 0
CCOC(=COc1ccc(OC(=O)c2ccccc2F)cc1)C(F)(F)F [compound 379] | 0
CCO/C(=C\Oc1cccc(Cn2cc(C(=O)N(CC)CC)cn2)c1)C(F)(F)F [compound 404] | 0
CCOC(=COc1ccc(C2CN(S(=O)(=O)CC)C2)cc1)C(F)(F)F [compound 383] | 0
CCOC(=COc1ccc(CSC(C)=O)cc1)C(F)(F)F [compound 445] | 38
CCOC(=COc1ccc(NC(=O)c2ccccc2F)cc1)C(F)(F)F [compound 461] | 0
CCOC(=O)c1cnn(Cc2ccc(O/C=C(\OCC)C(F)(F)F)c(I)c2)c1 [compound 374] | 0
CCO/C(=C\Oc1cccc(Cn2cc(C(=O)NC3CC3)cn2)c1)C(F)(F)F [compound 391] | 0
CCO/C(=C\Oc1ccc(Cn2cc(C(=O)NCC(F)F)cn2)cc1)C(F)(F)F [compound 436] | 99
CCOC(=O)c1cnn(-c2ccc(O/C=C(\OCC)C(F)(F)F)cc2)c1 [compound 316] | 100

###

# maps each entry to its Test D disease control rating
# Tested on: Zymoseptoria tritici (the causal agent of wheat leaf blotch)
# assay: Test D: preventive spray on wheat seedlings, disease rating (100 = 100% control; * 50 ppm, ** 10 ppm, *** 250 ppm)
# Type: in vivo
# reported conditions: 250 ppm test suspension; wheat seedlings; 100 = 100% disease control
Marks after values point to notes of the source that are not given here.
measured endpoint: Test D disease control rating

structure | assay value
CCS(=O)(=O)Cc1ccc(OCC(O)(O)C(F)(F)F)cc1 | 0*** %
CCO/C(=C\Oc1ccc(Cn2cc(C(=O)OCC(=O)c3ccccc3)cn2)cc1)C(F)(F)F | 0*** %
CCO/C(=C\Oc1ccc(Cc2ncc(C(=O)NCC(F)F)o2)cc1)C(F)(F)F | 60*** %
CCCOC(=O)c1cnn(Cc2ccc(O/C=C(\OCC)C(F)(F)F)cc2)c1 | 23*** %

###

# Tested on: Puccinia recondita f. sp. tritici (the causal agent of wheat leaf rust)
# assay: Test B: preventive spray on wheat seedlings, disease rating (100 = 100% control; * 50 ppm, ** 10 ppm, *** 250 ppm)
# Type: in vivo
# reported conditions: 250 ppm test suspension; wheat seedlings; 100 = 100% disease control
measured endpoint: Test B disease control rating

structure | target system | measured endpoint | assay value
O=C(NCC(F)(F)F)c1csc(Cc2ccc(OCC3(C(F)(F)F)OCCO3)cc2)n1 | Puccinia recondita f. sp. tritici (the causal agent of wheat leaf rust) | Test B disease control rating | 100%
CCOC(=O)c1cnn(Cc2ccc(SCC3(C(F)(F)F)OCCO3)cc2)c1 | Puccinia recondita f. sp. tritici (the causal agent of wheat leaf rust) | Test B disease control rating | 0%
N#Cc1ccc(OCC2(C(F)(F)F)OCCO2)cc1 | Puccinia recondita f. sp. tritici (the causal agent of wheat leaf rust) | Test B disease control rating | 100%
CCOC(=O)c1cnn(Cc2ccc(O/C=C(\OC(C)C)C(F)(F)F)cc2)c1 | Puccinia recondita f. sp. tritici (the causal agent of wheat leaf rust) | Test B disease control rating | 0%

###

# maps each entry to its pest or weed control at 250 ppm
# Test system: Zymoseptoria tritici (the causal agent of wheat leaf blotch)
# assay: Test D: preventive spray on wheat seedlings, disease rating (100 = 100% control; * 50 ppm, ** 10 ppm, *** 250 ppm)
# Assay type: in vivo
# reported conditions: Zymoseptoria tritici; 250 ppm test suspension; wheat seedlings; 100 = 100% disease control

structure | pest or weed control at 250 ppm, %
CCCCOC(=O)c1cnn(Cc2ccc(O/C=C(\OCC)C(F)(F)F)cc2)c1 | 53
CCOC(=O)c1cnn(Cc2ccc(O/C=C(\OCC)C(F)(F)F)cc2)c1 | 73
CCO/C(=C\Oc1ccc(Cn2cc(C(=O)OCc3ccccc3)cn2)cc1)C(F)(F)F | 9
COC(=O)c1ccc(OCC(O)(O)C(F)(F)F)cc1 | 96
CCOC(=O)c1cnn(Cc2ccc(OCC3(C(F)(F)F)OCCO3)cn2)c1 | 92
CCOC(=O)c1cnn(Cc2ccc(OCC(O)(O)C(F)(F)F)cc2)c1 | 97
CCOC(=O)c1cnn(Cc2ccc(OCC3(C(F)(F)F)OCCO3)cc2)c1 | 89
CCO/C(=C\Oc1ccc(Cn2cc(C(=O)OCCCCl)cn2)cc1)C(F)(F)F | 10
